Test system: CP260
Experiment: qHTS profiling for inhibitors of Plasmodium falciparum proliferation (AID 504749); note: nearly all actives have a fitted effect of over 60% in size
Conditions: P. falciparum in erythrocytes, SYBR Green DNA, 72 h; series mostly up to 28.7 µM
Records with an inconclusive call do not appear. Active and inactive are the calls of the source. Calls come from the whole dose curve; as a rule, active = well fitted inhibition curve with a large enough effect; inconclusive = small, poorly fitted or top-dose-only effect; inactive = flat fitted curve, though single readings scatter.
Assign a class; possible classes are active, inactive

Query: # fetch the recorded call for `OCCN1CCN(CCCN2c3ccccc3Sc3ccc(Cl)cc32)CC1` here
Response: active

Query: What did the test return for `O=c1cc(CO)occ1O` ?
Response: inactive

Query: Hey, what did the test say about `O=C(O)c1ccccn1` ?
Response: inactive

Query: GET /call?item= `O=C1c2c(O)cccc2Cc2cccc(O)c21` returns the recorded outcome of this test.
Response: inactive

Query: Kindly provide the recorded test outcome for the following compound: `CC1(C)CO[C@@H](CC(=O)O)CN1`
Response: inactive

Query: Assay outcome for `NCC(=O)CCC(=O)O` : what was it?
Response: inactive

Query: // param item: `CCN(CC)CCSC(=O)C(c1ccccc1)c1ccccc1` ; yields the recorded call
Response: inactive

Query: Assay result, entry `NS(=O)(=O)c1cc2c(cc1Cl)NC(CSCc1ccccc1)=NS2(=O)=O` — outcome?
Response: inactive

Query: Called result for `C[C@@H]1CN(c2c(F)c(F)c3c(=O)c(C(=O)O)cn(C4CC4)c3c2F)C[C@H](C)N1`
Response: inactive

Query: Call for entry `O=S(=O)(O)NC1CCCCC1` :
Response: inactive

Query: Assay result, entry `Oc1cn2c(n1)Nc1ccc(Cl)c(Cl)c1C2` — outcome?
Response: inactive
